System: HL-60(TB) leukemia
procedure.text: NCI-60 one-dose screen, 48 h (100 = growth as untreated, 0 = no growth, -100 = all killed)
condition.description: 10 µM unless noted
The panel holds about 83,000 compounds, 20% with a hit somewhere; the sample as a whole holds those more often.
growth overview
Write down the numeric answer in % and omit the unit.

As a guide, the following entries are already answered.
> print(dat)
                                   compound  unit.label  assay.value
1  Cn1c(-c2nonc2NC(=O)c2ccc(F)cc2)nc2ccccc21           %        -30.1
2  O=S(=O)(NCCCNc1nccc(-c2c(-c3ccc(F)c(O)c3)nc3occn23)n1)c1ccccc1           %         84.3
3  NC(=O)CSc1oc(-c2ccccc2)nc1S(=O)(=O)c1ccc(Br)cc1           %         82.1
4                                  CNC(C)=O           %          107

Read off the recorded growth for Cc1ccc2c(c1)Sc1c(ccc3ccccc13)N2 44.9

Read off the recorded growth for O=C(Nc1cccc(-n2cc(-c3ccncc3)c(-c3ccc(O)c(Cl)c3)n2)c1)Nc1cccc(C(F)(F)F)c1 -11.6

Read off the recorded growth for FC(F)(F)c1cccc(Nc2nc3ccccc3nc2Nc2cccc(C(F)(F)F)c2)c1 -48.9
